- test.target: EGFR (H773insNPH) expressing Ba/F3 stable cell line (Homo sapiens, UniProt P00533, DUP771-773, cells depend on it)
- Sequence (P00533 with tags, fused parts or gaps DUP771-773): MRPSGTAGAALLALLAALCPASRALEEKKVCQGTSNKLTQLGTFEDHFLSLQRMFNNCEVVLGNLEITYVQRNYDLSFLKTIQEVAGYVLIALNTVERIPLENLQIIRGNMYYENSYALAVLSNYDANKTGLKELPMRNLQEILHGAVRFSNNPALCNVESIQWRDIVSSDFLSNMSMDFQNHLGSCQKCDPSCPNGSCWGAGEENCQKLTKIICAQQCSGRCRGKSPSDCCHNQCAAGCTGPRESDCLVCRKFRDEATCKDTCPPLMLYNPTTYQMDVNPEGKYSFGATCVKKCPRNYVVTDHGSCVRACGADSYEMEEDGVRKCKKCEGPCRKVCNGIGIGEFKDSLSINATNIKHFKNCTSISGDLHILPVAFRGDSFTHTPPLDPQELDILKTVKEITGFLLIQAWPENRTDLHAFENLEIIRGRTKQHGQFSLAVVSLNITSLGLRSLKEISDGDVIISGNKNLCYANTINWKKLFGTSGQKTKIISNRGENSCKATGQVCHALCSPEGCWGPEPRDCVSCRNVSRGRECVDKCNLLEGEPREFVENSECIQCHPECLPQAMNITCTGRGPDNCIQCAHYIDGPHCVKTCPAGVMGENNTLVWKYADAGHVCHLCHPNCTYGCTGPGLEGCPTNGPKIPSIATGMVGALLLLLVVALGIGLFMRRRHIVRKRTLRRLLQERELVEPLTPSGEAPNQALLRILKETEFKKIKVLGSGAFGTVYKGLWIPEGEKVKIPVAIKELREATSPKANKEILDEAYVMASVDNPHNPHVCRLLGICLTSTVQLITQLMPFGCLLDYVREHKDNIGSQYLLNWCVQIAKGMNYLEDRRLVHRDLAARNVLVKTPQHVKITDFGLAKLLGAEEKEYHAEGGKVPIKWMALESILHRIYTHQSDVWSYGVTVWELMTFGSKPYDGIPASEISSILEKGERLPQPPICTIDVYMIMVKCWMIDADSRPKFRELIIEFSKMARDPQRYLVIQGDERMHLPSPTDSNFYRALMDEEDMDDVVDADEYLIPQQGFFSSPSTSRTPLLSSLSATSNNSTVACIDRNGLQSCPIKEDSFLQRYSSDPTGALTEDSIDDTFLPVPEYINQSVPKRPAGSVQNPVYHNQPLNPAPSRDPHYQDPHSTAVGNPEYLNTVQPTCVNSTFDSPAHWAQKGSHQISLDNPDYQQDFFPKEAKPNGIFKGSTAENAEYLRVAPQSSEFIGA
- method.notes: Cellular proliferation (Alamar Blue) assay, EGFR H773insNPH Ba/F3
- Type: cell-based
- condition.label: 72 hr, read-out: NPH IC50
Structures can show the parent of a compound that is named as a salt.
value.type: GI50 (nM)

A: C=CC(=O)Nc1cccc(Nc2nc(Nc3cnn(C)c3)ncc2-c2ccc(OC)nc2)c1 [Compound 118, trifluoroacetate]
B: C=CC(=O)Nc1ccc(F)c(Nc2nc(Nc3cnn(C)c3)ncc2-c2ccnc(OC)c2)c1 [Compound 68]
C: CN(C)C/C=C/C(=O)Nc1cccc(Nc2nc(Nc3cn(C)nc3Cl)ncc2-c2ccc(C(F)(F)F)cc2)c1 [Compound 53]
# rank above entries by GI50 (max first, min last) // rank by listing labels in the order requested C, B, A
(C: 1890 nM, B: 107 nM, A: 29 nM)

* * *

- test.target: HER2 (A775_G776insYVMA) expressing Ba/F3 stable cell line (Homo sapiens, UniProt P04626, DUP772-775, cells depend on it)
- Sequence (P04626 with tags, fused parts or gaps DUP772-775): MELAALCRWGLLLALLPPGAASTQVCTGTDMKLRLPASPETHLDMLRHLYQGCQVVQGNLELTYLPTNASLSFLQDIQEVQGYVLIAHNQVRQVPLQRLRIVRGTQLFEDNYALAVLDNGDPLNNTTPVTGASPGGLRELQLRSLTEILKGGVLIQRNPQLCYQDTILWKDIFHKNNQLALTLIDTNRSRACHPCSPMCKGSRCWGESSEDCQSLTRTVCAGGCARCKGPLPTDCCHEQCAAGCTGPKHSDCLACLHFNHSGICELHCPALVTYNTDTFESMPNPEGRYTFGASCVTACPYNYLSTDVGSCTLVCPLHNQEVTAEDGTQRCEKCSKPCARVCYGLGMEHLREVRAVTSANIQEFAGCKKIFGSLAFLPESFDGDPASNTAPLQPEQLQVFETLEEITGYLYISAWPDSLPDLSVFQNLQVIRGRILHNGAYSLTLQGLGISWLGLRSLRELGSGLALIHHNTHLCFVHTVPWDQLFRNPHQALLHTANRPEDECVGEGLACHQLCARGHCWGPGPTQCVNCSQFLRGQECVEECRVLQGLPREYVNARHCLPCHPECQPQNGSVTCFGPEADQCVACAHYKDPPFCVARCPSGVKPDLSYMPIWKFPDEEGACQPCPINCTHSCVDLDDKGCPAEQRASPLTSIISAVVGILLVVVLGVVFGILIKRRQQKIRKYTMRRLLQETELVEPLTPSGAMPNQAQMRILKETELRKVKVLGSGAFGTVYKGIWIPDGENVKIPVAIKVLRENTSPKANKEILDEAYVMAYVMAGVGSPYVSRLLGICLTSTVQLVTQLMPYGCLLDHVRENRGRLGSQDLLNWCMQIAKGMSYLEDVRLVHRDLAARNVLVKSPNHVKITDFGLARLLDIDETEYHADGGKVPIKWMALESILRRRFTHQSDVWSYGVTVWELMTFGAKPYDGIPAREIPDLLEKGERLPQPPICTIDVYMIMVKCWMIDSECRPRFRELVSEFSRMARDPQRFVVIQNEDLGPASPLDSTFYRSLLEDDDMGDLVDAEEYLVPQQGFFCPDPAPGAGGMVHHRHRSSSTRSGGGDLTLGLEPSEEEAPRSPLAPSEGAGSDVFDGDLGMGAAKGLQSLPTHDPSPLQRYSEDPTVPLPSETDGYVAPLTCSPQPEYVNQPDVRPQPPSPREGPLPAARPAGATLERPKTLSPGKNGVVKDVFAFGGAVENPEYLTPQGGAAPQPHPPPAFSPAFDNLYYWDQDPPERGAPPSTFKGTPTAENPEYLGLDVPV
- method.notes: Cellular proliferation (Alamar Blue) assay, HER2 A775_G776insYVMA Ba/F3
- Type: cell-based
- condition.label: 72 hr, read-out: YVMA IC50
value.type: GI50

C=CC(=O)Nc1ccc(F)c(Nc2nc(Nc3cnn(C)c3)ncc2N2CCCCC2)c1 ... > 10 µM
C=CC(=O)Nc1ccc(F)c(Nc2nc(Nc3cnn(C)c3)ncc2C2CCOCC2)c1 ... > 10 µM

Kindly review the next compound as well.
Which value of GI50 has been reported for C=CC(=O)Nc1cccc(Nc2nc(Nc3cnn(C)c3)ncc2CN(C(C)=O)C(C)c2ccccc2)c1 (stereo not drawn) in the records? > 10 µM

* * *

Reported pIC50 values follow for various compounds
- Tested on: A431 cells
- method.notes: Cellular proliferation (Alamar Blue) assay, A431
- Assay type: cell-based
- condition.label: Homo sapiens, A-431; A431 cells, 72 hr, Alamar Blue; read-out: A431 IC50
pIC50: −log10 of the molar value.

For orientation, consider the following solved cases.
C=CC(=O)Nc1ccc(F)c(Nc2nc(Nc3cc(C)sn3)ncc2-c2ccc(C(F)(F)F)cc2)c1 [Compound 212] ... < 5.00
C=CC(=O)Nc1ccc(F)c(Nc2nc(Nc3cn(C)cn3)ncc2-c2ccc(C(F)(F)F)cc2)c1 [Compound 214] ... < 5.00

Request the reported pIC50 associated with C=CC(=O)Nc1cccc(Oc2nc(NCCN(C)C)ncc2-c2ccc(C(F)(F)F)cc2)c1 [Compound 236] < 5.00

* * *

- test.target: HER2 (A775_G776insYVMA) expressing Ba/F3 stable cell line (Homo sapiens, UniProt P04626, DUP772-775, cells depend on it)
- method.notes: Cellular proliferation (Alamar Blue) assay, HER2 A775_G776insYVMA Ba/F3
- Format: cell-based
- condition.label: 72 hr, read-out: YVMA IC50
value.type: GI50 (nM)

A: C=CC(=O)Nc1ccc(F)c(Nc2nc(Nc3cn(CCN(C)C)nc3Cl)ncc2-c2ccc(C(F)(F)F)cc2)c1
B: [2H]C([2H])([2H])n1cc(Nc2ncc(-c3ccc(C(F)(F)F)cc3)c(Nc3cc(NC(=O)C=C)ccc3F)n2)cn1
C: C=CC(=O)Nc1ccc(F)c(Nc2nc(Nc3cnn(C)c3)ncc2-c2cccnc2OC)c1
Please put the 3 compounds above in a list ordered by falling GI50. List the labels in the requested order. C, A, B
(C: 896 nM, A: 298 nM, B: 133 nM)
